Test system: Escherichia coli
Assay: Antibacterial activity against Escherichia coli assessed as inhibition of bacterial growth measured after 24 hrs incubation
Format: functional
Test Readout: log10(MIC) (log10 of the value in µg/mL)

• CCn1cc(C(=O)O)c(=O)c2cc(F)c(N3CCN(C(=O)/C(C#N)=C/c4c[nH]c5cccc(Cl)c45)CC3)cc21 = 0.60
• CCCCn1cc(/C=C(\C#N)C(=O)N2CCN(c3cc4c(cc3F)c(=O)c(C(=O)O)cn4CC)CC2)c2ccccc21 = 0.60
• C=CCn1cc(C(=O)O)c(=O)c2cc(F)c(N3CCN(C(=O)/C(C#N)=C/c4cn(CC(=O)OCC)c5ccccc45)CC3)cc21 = 0.00
• CCCCCCn1cc(/C=C(\C#N)C(=O)N2CCN(c3cc4c(cc3F)c(=O)c(C(=O)O)cn4CC)CC2)c2ccccc21 = -0.30
• CCn1cc(C(=O)O)c(=O)c2cc(F)c(N3CCN(C(=O)/C(C#N)=C/c4cn(CC5CCCCC5)c5ccccc45)CC3)cc21 = 0.00
• CCn1cc(C(=O)O)c(=O)c2cc(F)c(N3CCN(C(=O)/C(C#N)=C/c4cn(CC(=O)O)c5ccccc45)CC3)cc21 = -0.30
• CCn1cc(C(=O)O)c(=O)c2cc(F)c(N3CCN(C(=O)/C(C#N)=C/c4cn(Cc5ccc(C)cc5)c5ccccc45)CC3)cc21 = 1.20
• CCOC(=O)Cn1cc(/C=C(\C#N)C(=O)N2CCN(c3cc4c(cc3F)c(=O)c(C(=O)O)cn4Cc3ccccc3)CC2)c2ccccc21 = 0.90
• CCCCCCn1cc(C(=O)O)c(=O)c2cc(F)c(N3CCN(C(=O)/C(C#N)=C/c4cn(CC(=O)OCC)c5ccccc45)CC3)cc21 = 1.51
• CCn1cc(C(=O)O)c(=O)c2cc(F)c(N3CCN(C(=O)/C(C#N)=C/c4cn(CC#N)c5ccccc45)CC3)cc21 = 0.30
• CCn1cc(C(=O)O)c(=O)c2cc(F)c(N3CCN(C(=O)/C(C#N)=C/c4c[nH]c5cc(F)ccc45)CC3)cc21 = 0.60
• CCn1cc(C(=O)O)c(=O)c2cc(F)c(N3CCN(C(=O)/C(C#N)=C/c4c[nH]c5cc(C)ccc45)CC3)cc21 = 0.00
• CCn1cc(C(=O)O)c(=O)c2cc(F)c(N3CCN(C(=O)/C(C#N)=C/c4cn(Cc5ccccc5F)c5ccccc45)CC3)cc21 = -0.30
• CCn1cc(C(=O)O)c(=O)c2cc(F)c(N3CCN(C(=O)/C(C#N)=C/c4cn(CC5CCC5)c5ccccc45)CC3)cc21 = -0.30
• CCn1cc(/C=C(\C#N)C(=O)N2CCN(c3cc4c(cc3F)c(=O)c(C(=O)O)cn4CC)CC2)c2ccccc21 = 1.81

Just for reference, ChEMBL document CHEMBL5512655 is where these values come from.
